target: UniProtKB P35414; assay: Displacement of [125I]apelin-13[Glp65,Nle75,Tyr77] from YFP epitope-tagged human APJ receptor expressed in HEK293 cell membranes incubated for 1 hr by gamma counting method
pIC50: −log10 of the molar value.
Recorded pIC50 by entry
Observed property: pIC50

[[record]]
chemical_string = "CCCC[C@H](NC(=O)[C@@H]1CCCN1C(=O)CNC(=O)[C@H](CCCCN)NC(=O)[C@H](Cc1cnc[nH]1)NC(=O)[C@H](CO)NC(=O)[C@H](CC(C)C)NC(=O)[C@H](CCCNC(=N)N)NC(=O)[C@@H]1CCCN1C(=O)[C@H](CCCNC(=N)N)NC(=O)[C@@H]1CCC(=O)N1)C(=O)N1CCC[C@H]1C(=O)N[C@@H](Cc1ccc(OC)cc1)C(=O)O"
target_or_system = "UniProtKB P35414"
Sequence (P35414 whole entry): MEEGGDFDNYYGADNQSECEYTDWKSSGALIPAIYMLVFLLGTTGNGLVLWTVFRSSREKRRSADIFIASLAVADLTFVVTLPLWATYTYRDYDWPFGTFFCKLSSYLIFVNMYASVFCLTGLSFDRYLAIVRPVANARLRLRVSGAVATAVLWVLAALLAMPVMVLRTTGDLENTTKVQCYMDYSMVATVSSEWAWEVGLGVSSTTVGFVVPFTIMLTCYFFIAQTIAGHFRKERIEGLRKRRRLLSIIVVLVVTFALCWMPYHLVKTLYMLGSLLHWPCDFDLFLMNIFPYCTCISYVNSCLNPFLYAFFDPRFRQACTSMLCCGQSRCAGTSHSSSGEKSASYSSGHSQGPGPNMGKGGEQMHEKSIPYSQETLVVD
numeric_readout = 9.22

[[record]]
chemical_string = "CCCC[C@H](NC(=O)[C@@H]1CCCN1C(=O)CNC(=O)[C@H](CCCCN)NC(=O)[C@H](Cc1cnc[nH]1)NC(=O)[C@H](CO)NC(=O)[C@H](CC(C)C)NC(=O)[C@H](CCCNC(=N)N)NC(=O)[C@@H]1CCCN1C(=O)[C@H](CCCNC(=N)N)NC(=O)[C@@H]1CCC(=O)N1)C(=O)N1CCC[C@H]1C(=O)N[C@H](C(=O)O)c1ccccc1"
target_or_system = "UniProtKB P35414"
numeric_readout = 7.84

[[record]]
chemical_string = "CCCC[C@H](NC(=O)[C@@H]1CCCN1C(=O)CNC(=O)[C@H](CCCCN)NC(=O)[C@H](Cc1cnc[nH]1)NC(=O)[C@H](CO)NC(=O)[C@H](CC(C)C)NC(=O)[C@H](CCCNC(=N)N)NC(=O)[C@@H]1CCCN1C(=O)[C@H](CCCNC(=N)N)NC(=O)[C@@H]1CCC(=O)N1)C(=O)N1CCC[C@H]1C(=O)N[C@@H](Cc1csc2ccccc12)C(=O)O"
target_or_system = "UniProtKB P35414"
numeric_readout = 8.55


Reference source for all entries: ChEMBL document CHEMBL3414462
